# method description: Chemical stability in phosphate buffer of pH 7.4 assessed as formation of acid
# Assay type: physicochemical
parameter measured: Activity (%)

The examples below pair each entry with its known result.
{"sample smiles": "CCCCOC(=O)c1ccc(Oc2ccc3c(c2)COB3O)nc1", "Activity (%)": 0.4}
{"sample smiles": "COC(=O)c1ccc(Oc2ccc3c(c2)COB3O)nc1", "Activity (%)": 0.4}

I = CCCOC(=O)c1ccc(Oc2ccc3c(c2)COB3O)nc1
II = CC(C)OC(=O)c1ccc(Oc2ccc3c(c2)COB3O)nc1
Of I and II , which carries the smaller reported Activity figure? Choose, then provide that item's label.
I
(I: 0.5%, II: 1.4%)
